- Test system: T1, human ALPPL2 (recombinant protein) (human, UniProt P10696 20-503, limits assumed)
- T1 construct: biotinylated where captured on streptavidin
- T1 sequence (P10696 20-503 limits assumed): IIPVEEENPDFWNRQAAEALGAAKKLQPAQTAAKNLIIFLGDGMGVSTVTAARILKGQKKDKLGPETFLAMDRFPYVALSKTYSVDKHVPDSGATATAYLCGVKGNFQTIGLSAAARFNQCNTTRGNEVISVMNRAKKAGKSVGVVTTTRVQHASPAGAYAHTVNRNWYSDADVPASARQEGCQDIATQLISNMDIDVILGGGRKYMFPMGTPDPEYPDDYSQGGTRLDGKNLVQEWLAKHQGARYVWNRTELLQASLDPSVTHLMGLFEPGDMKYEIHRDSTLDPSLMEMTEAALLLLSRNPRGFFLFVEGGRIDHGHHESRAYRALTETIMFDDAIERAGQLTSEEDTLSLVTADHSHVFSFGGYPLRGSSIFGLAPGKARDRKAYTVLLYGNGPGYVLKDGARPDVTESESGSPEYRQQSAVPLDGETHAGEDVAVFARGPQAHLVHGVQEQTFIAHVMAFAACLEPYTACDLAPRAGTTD
- Assay details: screen of rabbit B-cell clones by ELISA and FACS
Measured parameter: binding result

AB1C4 (antibody, V domains shown, Rabbit antibody cloned from a single B cell; also called rabbit C4) VH: QSLEESGGDLVKPGPSLTLTCKASGFTISNNYWICWVRQAPGKGLEWIGCIATGDGSTYYASWAKGRFTISKTSSTTVTLQMTSLTAADTATYFCARGAAGSSWTTYFDFWGPGTPVTVSS VL: DIVMTQTPASVEAAVGGTVTIKCQAGQNIDNYLSWYQQKPGQPPKLLIYRASTLASGVPSRFKGSGSGTEFTLTISDLECADAATYYCQNNNGGSTFTGFPFGGGTEVVVK
binds
AB1C45 (antibody, V domains shown, Rabbit antibody cloned from a single B cell) VH: QERLEESGGGLVQPEGSLTLTCTASGFSFSSSYYMCWVRQAPGKGMEWIGCIYTGNDDTWYASWAKGRFTVSKTSSTTVTLQMTSLTATDTATYFCARGLSPIDLWGPGTLVTVSS VL: IVMTQTPSSKSVPVGDTVTINCQASESIYNNNNLGWYQQKPGQPPKLLIYWASTLASGVPSRFKGSGSGTQFTLTISDVECDDAATYYCAGYKSRTTDGSAFGGGTEVVVK
binds
AB2C136 (antibody, V domains shown, Rabbit antibody cloned from a single B cell) VH: QEQLEESGGDLVKPGASLTLTCTASGFSFNSNYYMCWVRQAPGKGLEWIACIYTGIVVPTYYASWAKGRFTISKTSSTTVTLQMTSLTAADTATYFCARDPYVGSSYIYNLWGPGTLVTVSS VL: LVMTQTPSPVSAAVGSTVTISCQSSQSVYNNNNLAWYQQKPGQPPKLLIYSASSLASGVPSRFKGSGSGTQFTLTISGVECDDAATYYCAGYKTYSNNENAFGGGTEVVVK
binds
